- System: Plasmodium falciparum Sir2 (PF13_0152, Sir2A)
- PROTOCOL TEXT: Plasmodium falciparum Sir2A binding compounds – biochemical, small-molecule microarray, 635 nm fluorescence, primary screen (AID 1098);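 note: score merges spot fluorescence intensity with its signal-to-noise ratio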
- STUDY CONDITIONS: fluorescence 635 nm, higher = more signal
Given measured composite z-score, output condition met if it is greater than or equal to 0.6 and condition not met if not.

# COMPOUND, DISCRETE LABEL
data = [
    ("COc1ccc([Si](C)(C)[C@H]2[C@H](CCO)O[C@@]3(C(=O)N(Cc4ccccc4)c4ccc(N5C(=O)COc6ccccc65)cc43)[C@@H]2C)cc1", "condition met"),
    ("O=C1C2C=CC(C(O)c3ccc(Br)cc3)N(n3cnnc3)C2C(=O)N1Cc1ccccc1 (configuration not stated)", "condition met"),
    ("COC(=O)[C@@]1(Cc2ccc(F)cc2)[C@H]2c3cc(C(=O)N4CCCC4)n(CCc4ccc(OC)c(Br)c4)c3C[C@H]2CN1C(=O)c1ccccc1", "condition met"),
    ("[N-]=[N+]=NCc1ccccc1C[C@]1(C(N)=O)N=C(c2ccc(OCCCO)cc2)O[C@H]1c1ccccc1N=[N+]=[N-]", "condition not met"),
    ("COc1ccc([Si](C)(C)[C@H]2[C@H](CC(=O)N3Cc4ccccc4C[C@H]3CO)O[C@@]3(C(=O)N(Cc4cccc(I)c4)c4ccccc43)[C@@H]2C)cc1", "condition not met"),
]

---

- TARGET OR SYSTEM: Concanavalin-A (Canavalia ensiformis) (UniProt P02866)
- Sequence (P02866 whole entry, looked up): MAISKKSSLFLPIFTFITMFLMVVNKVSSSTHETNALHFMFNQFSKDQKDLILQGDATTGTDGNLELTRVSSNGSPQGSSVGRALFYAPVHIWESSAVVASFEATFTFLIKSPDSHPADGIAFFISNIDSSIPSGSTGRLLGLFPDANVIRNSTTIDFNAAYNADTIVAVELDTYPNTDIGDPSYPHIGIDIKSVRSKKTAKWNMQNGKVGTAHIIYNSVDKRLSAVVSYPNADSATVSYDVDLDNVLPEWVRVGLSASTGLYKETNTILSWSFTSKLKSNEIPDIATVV
- PROTOCOL TEXT: compounds binding concanavalin A lectin – biochemical, small-molecule microarray, Alexa647 label, 635 nm, artefact control for SMM control protein annotation, primary screen (AID 1127)
- STUDY CONDITIONS: ConA-A647 binding fluorescence, higher = more signal
The threshold is inclusive: composite z-score of exactly 0.9 counts as True; values below receive False.

# MOLECULE, DISCRETE LABEL
rows = [
    ("CC1(C)C(=O)C(c2ccccc2)=C2CN3C(=O)N(CCc4ccccc4)C(=O)C3(Cc3ccccc3)C=C21 (configuration not stated)", "False"),
    ("COc1ccc([Si](C)(C)[C@H]2[C@H](CCO)O[C@@]3(C(=O)N(Cc4cccc(N5C(=O)c6cccc7cccc5c67)c4)c4ccccc43)[C@@H]2C)cc1", "False"),
    ("CCOC(=O)C[C@H]1[C@H](OC(=O)c2ccccc2-c2ccccc2)[C@@H](NC(=O)c2ccc(-c3ccccc3)cc2)c2cc(OCCCO)ccc2N1C(=O)c1ccccc1", "False"),
    ("CO[C@H]1O[C@H](CO)[C@@H](OC(=O)Nc2ccccc2-c2ccccc2)[C@H](OC(=O)Nc2ccccc2-c2ccccc2)[C@H]1OC(=O)Nc1ccccc1-c1ccccc1", "True"),
    ("CC(C)C(=C=CC[C@H](O)c1ccccc1OCCO)CCO", "False"),
    ("Cc1ccc(S[C@]2(C(=O)NCC(C)C)CC(=O)N(Cc3ccccc3)[C@@H]2c2ccc(CO)cc2)cc1", "False"),
]

---

- PROTOCOL TEXT: probe aWnt5a binding to arrayed compounds – biochemical, biotinylated probe, 635/667 nm fluorescence, primary screen (AID 1113);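 note: score merges 667 nm fluorescence intensity with signal-to-noise per printed feature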
- STUDY CONDITIONS: small-molecule microarray, higher = more signal
Label Fulfilled when composite z-score is at or above -0.1; otherwise label Not fulfilled.

# COMPOUND, DISCRETE LABEL
measured = [
    ("C=CCC(OC(C)=O)[C@@H]1[C@@H](N(Cc2ccc(-c3ccccc3)cc2)C(=O)c2ccc(C)cc2)c2cc(OCCCO)ccc2N1C(=O)c1ccc2ccccc2n1 (some centres not stated)", "Not fulfilled"),
    ("O=C1C2C=CC(C(O)c3cccc4ccccc34)N(n3cnnc3)C2C(=O)N1Cc1ccccc1 (configuration not stated)", "Fulfilled"),
    ("CO[C@H]1O[C@H](CO)[C@@H](OC(=O)Nc2ccc3c(c2)OCO3)[C@H](OC(=O)Nc2ccc3c(c2)OCO3)[C@H]1OC(=O)Nc1ccc2c(c1)OCO2", "Fulfilled"),
    ("O=C1OCC=C[C@H]2OC34C=CCN(c5ccc(Cl)cc5)C(=O)[C@H]3N(CCCO)C(=O)[C@@H]4[C@@H]12 (some centres not stated)", "Not fulfilled"),
    ("COCCOC(=O)N1C(=O)[C@@]2(c3cc(C#Cc4ccc(OC)cc4)ccc31)[C@H](C(N)=O)[C@H]1C(=O)O[C@H](c3ccccc3)[C@H](c3ccccc3)N1[C@@H]2c1ccc(O)cc1", "Fulfilled"),
    ("C[C@]1(C(=O)NCC(F)(F)F)c2ccccc2C(=O)N(Cc2cc(F)cc(C(F)(F)F)c2)[C@H]1c1ccc(CO)cc1", "Not fulfilled"),
    ("CN(C)CCCCNC(=O)[C@@H]1C[C@@H]2C(=O)N[C@@H](CCCCN)C(=O)N2[C@@H]1c1cccc(OCCO)c1", "Not fulfilled"),
]
